- study_target: CD71 on SK-BR-3 cells (human, UniProt P02786 1-760)
- Sequence (P02786 whole entry): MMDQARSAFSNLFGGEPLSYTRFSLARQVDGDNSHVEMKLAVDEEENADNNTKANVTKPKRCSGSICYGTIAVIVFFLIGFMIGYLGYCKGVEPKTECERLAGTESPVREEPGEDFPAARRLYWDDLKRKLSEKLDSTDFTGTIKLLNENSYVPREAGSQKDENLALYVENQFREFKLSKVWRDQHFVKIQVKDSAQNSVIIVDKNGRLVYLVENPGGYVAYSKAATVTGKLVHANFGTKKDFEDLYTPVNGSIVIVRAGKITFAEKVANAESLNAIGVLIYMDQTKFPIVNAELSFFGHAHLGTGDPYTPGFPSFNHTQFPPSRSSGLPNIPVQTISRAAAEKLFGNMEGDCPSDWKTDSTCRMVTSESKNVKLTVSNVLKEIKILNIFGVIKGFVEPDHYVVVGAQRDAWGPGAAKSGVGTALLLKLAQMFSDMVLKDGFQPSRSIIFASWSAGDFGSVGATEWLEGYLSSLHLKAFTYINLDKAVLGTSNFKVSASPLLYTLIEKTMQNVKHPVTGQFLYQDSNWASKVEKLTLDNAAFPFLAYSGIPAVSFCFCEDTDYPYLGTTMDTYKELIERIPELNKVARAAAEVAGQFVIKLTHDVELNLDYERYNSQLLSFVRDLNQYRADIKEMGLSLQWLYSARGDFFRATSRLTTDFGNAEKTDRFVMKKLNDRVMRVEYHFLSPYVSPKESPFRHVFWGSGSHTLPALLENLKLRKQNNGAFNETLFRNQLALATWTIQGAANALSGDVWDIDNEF
- assay_overview: cell-based or functional assay
readout_label: IC50, SKBR-3 viability, MMAF conjugate, second unlabelled column (+/- human transferrin) (nM)
Please give a number only; it is taken to be in nM.

Examples with answers:
{"columns": ["binder", "recorded_measurement"],
 "data": [
  ["SEQ ID NO 149 (designed binder, FN3 domain) MLPAPKNLVVSRVTEDSARLSWTAPDAAFDSFIIPYAEVRPDGEAIVLTVPGSERSYDLTGLKPGTEYSVLIHGVKGGKLSEPLSAIFTT", 5.5],
  ["SEQ ID NO 233 (designed binder, FN3 domain) MLPAPKNLVVSRVTEDSARLSWTAPDAAFDSFYIVYAEPIPNGEAIVLTVPGSERSYDLTGLKPGTEYSVLIHGVKGGRNSDPLSAIFTT", 17.7],
  ["SEQ ID NO 284 (designed binder) MLPAPKNLVVSRVTEDSARLSWTAPDAAFDSFFIGYLEPQPPGEAIVLTVPGSERSYDLTGLKPGTEYNVTIQGVKGGFPSMPLSAIFTT", 32]
]}

Now consider the entry below.
// SEQ ID NO 237 (designed binder, FN3 domain) MLPAPKNLVVSRVTEDSARLSWTAPDAAFDSFTILYGEMGTTGEAIVLTVPGSERSYDLTGLKPGTEYDVFIEGVKGGELSWPLSAIFTT : IC50, SKBR-3 viability, MMAF conjugate, second unlabelled column (+/- human transferrin) value = 3.76
